ASSAY OVERVIEW: compounds displacing fluorescent DNA intercalator, primary screen, artefact control for HCV NS3 helicase inhibitor project, biochemical, FID fluorescence (AID 1845);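 further: 0% = vehicle and 100% = reference compound; higher means more ethidium bromide displaced from hairpin DNA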
PARTICULARS: DNA fluorescent intercalator displacement, at 7.9 µM, active compounds read high
The whole screen tested about 290,000 compounds, of which about 490 (0.17%) were called active. What follows is part of a selection rich in actives, with near analogues and random picks from the rest.
PROPERTY NAME: inhibition (%)
Hi! Could you send only the number? It should be in %, unit omitted.

Answered examples (10):
[
  {
    "MOLECULE": "COc1ccc(N2CCN(CCNC(=O)Nc3cc(Cl)ccc3Cl)CC2)cc1",
    "inhibition, %": 21
  },
  {
    "MOLECULE": "CCCc1cc(=O)oc2c(C)c(OCC(=O)Nc3ccccn3)ccc12",
    "inhibition, %": -23.4
  },
  {
    "MOLECULE": "S=C(Nc1ccc(Cl)cc1Cl)N1CCCC1",
    "inhibition, %": 0.9
  },
  {
    "MOLECULE": "COc1ccc(CCNC(=O)C(=O)NCC2OCCN2S(=O)(=O)c2ccc(F)cc2)cc1OC (stereo unspecified)",
    "inhibition, %": -32.4
  },
  {
    "MOLECULE": "COC(=O)C1(C)NC(c2ccc(F)cc2)C2C(=O)N(c3ccccc3)C(=O)C21 (stereo unspecified)",
    "inhibition, %": 0.11
  },
  {
    "MOLECULE": "O=C(Nc1ccccc1)c1ccc2c(c1)OCCCO2",
    "inhibition, %": -4.42
  },
  {
    "MOLECULE": "CCN(CC)CCNC(=O)Cn1cnc2sc(C)c(S(=O)(=O)N3CCOCC3)c2c1=O",
    "inhibition, %": 11.1
  },
  {
    "MOLECULE": "CC1CC(C)CN(S(=O)(=O)c2cccc3nonc23)C1 (stereo unspecified)",
    "inhibition, %": -7.76
  },
  {
    "MOLECULE": "CC(C)c1nc2cc(C(=O)NC(C)c3cnn(C)c3)ccc2o1 (stereo unspecified)",
    "inhibition, %": -13.1
  },
  {
    "MOLECULE": "COc1ccc(CC(=O)Nc2cc(S(=O)(=O)N3CCCCC3)ccc2N2CCN(C)CC2)cc1",
    "inhibition, %": 39.2
  }
]

Could you please provide reported inhibition for `Clc1nc(NC2CCCC2)nc(N2CCOCC2)n1` ? Thanks!
-6.99

###

# key: entry, value: inhibition
ASSAY OVERVIEW: compounds displacing fluorescent DNA intercalator, primary screen, artefact control for HCV NS3 helicase inhibitor project, biochemical, FID fluorescence (AID 1845);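 further: 0% = vehicle and 100% = reference compound; higher means more ethidium bromide displaced from hairpin DNA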
PARTICULARS: DNA fluorescent intercalator displacement, at 7.9 µM, active compounds read high
Among all 290,000 compounds or so, about 490 (0.17%) were called active. The sample holds actives, similar compounds and a random draw of the others, so the mix is not that of the screen.
API: value field is a number in %; no unit string.

Previously resolved entries follow.
[
  {
    "COMPOUND": "CCCCNC(=O)C1(O)c2ccccc2NC(=O)N1c1ccc(Cl)cc1 (stereo not given)",
    "PROPERTY NAME": "inhibition",
    "ENDPOINT VALUE": -11.7
  },
  {
    "COMPOUND": "CC(=O)NC(CC(=O)Nc1nc(-c2ccccc2)c(C(C)=O)s1)c1ccccc1 (stereo not given)",
    "PROPERTY NAME": "inhibition",
    "ENDPOINT VALUE": -16.9
  },
  {
    "COMPOUND": "CCN(CC(=O)NCc1cccs1)C(=O)c1cccc(S(=O)(=O)Nc2ccccc2OC)c1",
    "PROPERTY NAME": "inhibition",
    "ENDPOINT VALUE": -11.7
  },
  {
    "COMPOUND": "COc1ccc(NC(=O)CCS(=O)(=O)c2cc3c(cc2Cl)NC(=O)CO3)cc1OC",
    "PROPERTY NAME": "inhibition",
    "ENDPOINT VALUE": -5.06
  },
  {
    "COMPOUND": "Cc1cccc(NC(=O)CCN2CC(C)CC(C)C2)c1 (stereo not given)",
    "PROPERTY NAME": "inhibition",
    "ENDPOINT VALUE": 6.82
  }
]

Indicate the recorded inhibition value for this compound: `COc1ccc(CC(=O)N/N=C(\C)c2ccccn2)cc1`
-6.95

Input `COc1cccc(NC(=O)Cn2cnc3sc(C)c(S(=O)(=O)N4CCN(C)CC4)c3c2=O)c1` , output reported inhibition.
26.6

Answer with the recorded inhibition for the compound listed here: O=C(O)CC(c1ccccc1F)N1Cc2ccccc2C1=O (stereo not given)
-5.32

Answer with the recorded inhibition of `O=C(Cn1c(NCCO)nc2ccccc21)c1ccc(Cl)cc1Cl` only.
8.95

Give the value of inhibition reported for the following: `CCN(CC)CCOc1ccc2c(c1)C(=NNC(=O)c1ccccn1)c1cc(OCCN(CC)CC)ccc1-2`
98.8

###

ASSAY OVERVIEW: compounds displacing fluorescent DNA intercalator, primary screen, artefact control for HCV NS3 helicase inhibitor project, biochemical, FID fluorescence (AID 1845);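 further: 0% = vehicle and 100% = reference compound; higher means more ethidium bromide displaced from hairpin DNA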
PARTICULARS: DNA fluorescent intercalator displacement, at 7.9 µM, active compounds read high
The campaign covered roughly 290,000 compounds. About 490 (0.17%) were called active. Only a selection was taken, and actives are over-represented in it overall.
Listing of recorded inhibition by entry.
Give the value, in units of %, as a plain number.

Here are 5 compounds together with their reported answers.
[
  {
    "COMPOUND": "COc1ccc(CC(=O)NC2CCSc3ccccc32)cc1OC (stereo not drawn)",
    "inhibition, %": -19.9
  },
  {
    "COMPOUND": "CC(C)c1cc(C(=O)N/N=C/C(Br)=C/c2ccccc2)n[nH]1",
    "inhibition, %": -26.4
  },
  {
    "COMPOUND": "C#CCOCCOCCOCCNc1nc(N2CCN(C(=O)[C@H](C(C)C)n3cc(CCO)nn3)CC2)nc(N2CCN(C(=O)[C@H](C(C)C)n3cc(CCO)nn3)CC2)n1",
    "inhibition, %": -49.9
  },
  {
    "COMPOUND": "COc1cccc(CNc2nc(C(F)(F)F)nc3ccccc23)c1",
    "inhibition, %": -5.57
  },
  {
    "COMPOUND": "CCC1CCCCN1CCCNC(=O)Cn1nc(-c2ccccc2)ccc1=O (stereo not drawn)",
    "inhibition, %": 0.11
  }
]

Identify the reported inhibition for the following entry. `Oc1c(Cl)cc(Cl)c(Cl)c1Cc1c(O)c(Cl)cc(Cl)c1Cl`
42.8

Hello, please tell me recorded inhibition for this one: `CC(C)(C)OC(=O)CNC(=O)c1[nH]cnc1C(=O)N[C@@H](Cc1ccccc1)C(=O)OCc1ccccc1`
-34.4

Find the measured inhibition of C#CCOCCOCCOCCNc1nc(N2CCN(C(=O)C(Cc3ccc(O)cc3)n3cc(C(N)CC(C)C)nn3)CC2)nc(N2CCN(C(=O)C(Cc3ccc(O)cc3)n3cc(C(N)C(C)CC)nn3)CC2)n1 (stereo not drawn) and report it.
46.3

For the compound `O=C(c1cc(S(=O)(=O)N2CCOCC2)ccc1Cl)N1CCOCC1` , report inhibition.
-0.42

For the compound CCc1ccc(C(CNc2nc(C(F)(F)F)nc3ccccc23)N(C)C)cc1 (stereo not drawn) , give its measured inhibition value.
39.5

Assign inhibition to the following record: O=C(CCN1CCc2ccccc2C(O)(c2ccccc2)C1)c1ccc2c(c1)OCCO2 (stereo not drawn)
13.1

Specify inhibition for C#CCOCCOCCOCCNc1nc(N2CCN(C(=O)[C@H](Cc3ccc(O)cc3)n3cc(C(N)CC(C)C)nn3)CC2)nc(N2CCN(C(=O)[C@H](CCC(=O)O)n3cc(C(N)[C@H](C)CC)nn3)CC2)n1 (stereo partly drawn) and stop.
17.7

Indicate its recorded inhibition; the compound in question is CCC1CCCCN1CCCNC(=O)c1cc2c(Cl)nc3ccccc3c2s1 (stereo not drawn)
43.6

Specify inhibition for C=CCN(Cc1nc(-c2cc(OC)c3c(c2)OCO3)oc1C)C1CCS(=O)(=O)C1 (stereo not drawn) and stop.
-27.8

Specify measured inhibition for CC1CN(C(=O)CCC(=O)NCCCN2CCC(Cc3ccccc3)CC2)c2cc(Cl)ccc2O1 (stereo not drawn) .
41.2

Output inhibition of `O=C(/C=C/c1ccco1)NC(=S)Nc1ccccc1Br`
-8.41

Look up inhibition of CC1CN(C(=O)CCC(=O)NCc2cccnc2)c2ccccc2O1 (stereo not drawn) and report it.
-10.2

Find the measured inhibition of `C#CCOCCOCCOCCNc1nc(N2CCN(C(=O)[C@H](C(C)C)n3cc(CCO)nn3)CC2)nc(N2CCN(C(=O)[C@H]([C@@H](C)CC)n3cc(CCCN=C(N)N)nn3)CC2)n1` and report it.
21.4
